System under test: Heme oxygenase 1 (Mus musculus) (UniProt P14901)
Sequence (P14901 whole entry): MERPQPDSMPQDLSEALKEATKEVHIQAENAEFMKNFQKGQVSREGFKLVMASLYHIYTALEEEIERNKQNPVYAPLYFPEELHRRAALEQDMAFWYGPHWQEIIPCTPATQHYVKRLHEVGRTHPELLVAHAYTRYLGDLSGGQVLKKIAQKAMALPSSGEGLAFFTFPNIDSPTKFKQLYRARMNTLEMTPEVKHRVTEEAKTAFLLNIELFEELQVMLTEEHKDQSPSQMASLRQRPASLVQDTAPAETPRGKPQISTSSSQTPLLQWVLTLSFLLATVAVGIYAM
Assay overview: Induction of HO1 in mouse RAW264.7 cells at 100 nM after 6 hrs by SDS-PAGE
Type: cell-based
Calls of active or inactive are those of the source. The rule behind the calls is not given here.
Experimental endpoint: Activity

[[record]]
molecule = "CC1(C)CC[C@]2(C(=O)O)CC[C@]3(C)[C@H](C(=O)C=C4[C@@]5(C)C=C(C#N)C(=O)C(C)(C)[C@@H]5CC[C@]43C)[C@@H]2C1 [BARDOXOLONE]"
experimental_endpoint = "Activity"
observed = "Active"

[[record]]
molecule = "C=C(C)[C@@H]1CC[C@]2(C(=O)O)CC[C@]3(C)[C@H](CC[C@@H]4[C@@]5(C)C=C(C#N)C(=O)C(C)(C)[C@@H]5CC[C@]43C)[C@@H]12"
experimental_endpoint = "Activity"
observed = "Active"

[[record]]
molecule = "CC1(C)CC[C@]2(C(=O)OC(=O)[C@]34CCC(C)(C)C[C@H]3[C@H]3C(=O)C=C5[C@@]6(C)C=C(C#N)C(=O)C(C)(C)[C@@H]6CC[C@@]5(C)[C@]3(C)CC4)CC[C@]3(C)[C@H](C(=O)C=C4[C@@]5(C)C=C(C#N)C(=O)C(C)(C)[C@@H]5CC[C@]43C)[C@@H]2C1"
experimental_endpoint = "Activity"
observed = "Active"

